# target-entity: HLA-A*26:02
# protocol-details: IEDB peptide-MHC binding, purified MHC/direct/fluorescence; filed as Kd, often an IC50 or EC50 that approximates it; bounds were set here for any values at or beyond the usual limits of such assays
# stated-conditions: source organism: Yellow fever virus
pKd: −log10 of the molar value.
endpoint-label: pKd

> print(dat)
   chain.sequence  endpoint.label  measured.number
1       LVLAVGPAY             pKd             6.26

====

# target-entity: HLA-B*40:01
# protocol-details: IEDB peptide-MHC binding, purified MHC/competitive/radioactivity; filed as Kd, often an IC50 or EC50 that approximates it; bounds were set here for any values at or beyond the usual limits of such assays
# stated-conditions: source organism: Mammarenavirus whitewaterense
endpoint-label: Kd (nM)

> print(dat)
   chain.sequence  target.entity  unit.name  reading.qualifier  measured.number
1       SDSVCACGL    HLA-B*40:01         nM                  ≥            44000
2       REPETTVVL    HLA-B*40:01         nM                  =              112

====

# target-entity: HLA-A*03:01
# protocol-details: IEDB peptide-MHC binding, purified MHC/direct/fluorescence; filed as Kd, often an IC50 or EC50 that approximates it; bounds were set here for any values at or beyond the usual limits of such assays
# stated-conditions: source organism: Mammarenavirus lassaense
Reported Kd is given for each of the following sequences.
endpoint-label: Kd

> print(dat)
   chain.sequence  endpoint.label    result
1       LINDQLIMK              Kd   ≥ 20 µM
2       MTMPLSCTK              Kd  0.622 µM
3       FVRSSPANF              Kd   ≥ 20 µM

====

# target-entity: HLA-B*35:01
# protocol-details: IEDB peptide-MHC binding, purified MHC/competitive/fluorescence; filed as Kd, often an IC50 or EC50 that approximates it; bounds were set here for any values at or beyond the usual limits of such assays
# stated-conditions: source organism: Francisella tularensis subsp. tularensis FSC198
pKd: −log10 of the molar value.
endpoint-label: pKd

> print(dat)
   chain.sequence   result
1       YGIAAHWSY  ≥ 10.00

====

Recorded measurements of pKd, one per entry
# target-entity: HLA-A*23:01
# protocol-details: IEDB peptide-MHC binding, purified MHC/competitive/radioactivity; filed as Kd, often an IC50 or EC50 that approximates it; bounds were set here for any values at or beyond the usual limits of such assays
# stated-conditions: source organism: Mammarenavirus guanaritoense
pKd: −log10 of the molar value.
endpoint-label: pKd

> print(dat)
   chain.sequence  target.entity  endpoint.label  measured.number
1      SFKVGHHTNF    HLA-A*23:01             pKd             5.88
2       GYRFFNKTL    HLA-A*23:01             pKd             6.68

====

# target-entity: HLA-A*24:02
# protocol-details: IEDB peptide-MHC binding, purified MHC/competitive/radioactivity; filed as Kd, often an IC50 or EC50 that approximates it; bounds were set here for any values at or beyond the usual limits of such assays
# stated-conditions: source organism: Dengue virus 4 Dominica/814669/1981
pKd: −log10 of the molar value.
endpoint-label: pKd

> print(dat)
   chain.sequence  measured.number
1      MSPGYVLGVF             5.83

====

# target-entity: HLA-A*02:01
# protocol-details: IEDB peptide-MHC binding, purified MHC/direct/fluorescence; filed as Kd, often an IC50 or EC50 that approximates it; bounds were set here for any values at or beyond the usual limits of such assays
# stated-conditions: source organism: Vibrio vulnificus YJ016
endpoint-label: Kd (µM)

> print(dat)
   chain.sequence  endpoint.label  measured.number
1       SLGGHTVWQ              Kd                8

====

// reported Kd for each item listed
# target-entity: HLA-A*31:01
# protocol-details: IEDB peptide-MHC binding, purified MHC/competitive/radioactivity; filed as Kd, often an IC50 or EC50 that approximates it; bounds were set here for any values at or beyond the usual limits of such assays
# stated-conditions: source organism: Dengue virus 1 Brazil/97-11/1997
endpoint-label: Kd

> print(dat)
   chain.sequence  endpoint.label     result
1       WQLMYFHRR              Kd    4.41 µM
2       SFNMLKRAR              Kd  ≥ 34.2 µM
3      RICTREEFTR              Kd    ≥ 70 µM

====

# target-entity: HLA-B*35:01
# protocol-details: IEDB peptide-MHC binding, purified MHC/competitive/fluorescence; filed as Kd, often an IC50 or EC50 that approximates it; bounds were set here for any values at or beyond the usual limits of such assays
# stated-conditions: source organism: Mycobacterium tuberculosis H37Ra
pKd: −log10 of the molar value.
endpoint-label: pKd

> print(dat)
   chain.sequence  endpoint.label  measured.number
1       YPITGVKSL             pKd             9.70

====

# target-entity: HLA-A*31:01
# protocol-details: IEDB peptide-MHC binding, purified MHC/competitive/fluorescence; filed as Kd, often an IC50 or EC50 that approximates it; bounds were set here for any values at or beyond the usual limits of such assays
# stated-conditions: source organism: dengue virus type 1
endpoint-label: Kd (nM)

> print(dat)
   chain.sequence  endpoint.label  unit.name  measured.number
1       ATYGWNLVK              Kd         nM             1.48

====

# target-entity: HLA-B*27:03
# protocol-details: IEDB peptide-MHC binding, purified MHC/direct/fluorescence; filed as Kd, often an IC50 or EC50 that approximates it; bounds were set here for any values at or beyond the usual limits of such assays
# stated-conditions: source organism: Coxiella burnetii Q321
endpoint-label: Kd

> print(dat)
   chain.sequence   result
1       IAFTRLFTV  ≥ 20 µM

====

# target-entity: HLA-A*31:01
# protocol-details: IEDB peptide-MHC binding, purified MHC/direct/fluorescence; filed as Kd, often an IC50 or EC50 that approximates it; bounds were set here for any values at or beyond the usual limits of such assays
# stated-conditions: source organism: Coxiella burnetii
pKd: −log10 of the molar value.
endpoint-label: pKd

> print(dat)
   chain.sequence  target.entity  endpoint.label  result
1       KGPDKLQVY    HLA-A*31:01             pKd  ≤ 4.70

====

# target-entity: HLA-B*15:17
# protocol-details: IEDB peptide-MHC binding, purified MHC/competitive/fluorescence; filed as Kd, often an IC50 or EC50 that approximates it; bounds were set here for any values at or beyond the usual limits of such assays
# stated-conditions: source organism: Variola virus
endpoint-label: Kd

> print(dat)
   chain.sequence  endpoint.label   result
1       IHSDQLSKF              Kd  ≥ 20 µM

====

# target-entity: HLA-B*57:01
# protocol-details: IEDB peptide-MHC binding, purified MHC/competitive/fluorescence; filed as Kd, often an IC50 or EC50 that approximates it; bounds were set here for any values at or beyond the usual limits of such assays
# stated-conditions: source organism: Influenza A virus (A/Gf/HK/SSP607/2003(H9N2))
endpoint-label: Kd

> print(dat)
   chain.sequence  target.entity   result
1       AMITYITRK    HLA-B*57:01  ≥ 20 µM

====

# target-entity: HLA-A*03:01
# protocol-details: IEDB peptide-MHC binding, purified MHC/direct/fluorescence; filed as Kd, often an IC50 or EC50 that approximates it; bounds were set here for any values at or beyond the usual limits of such assays
# stated-conditions: source organism: Coxiella burnetii Q321
endpoint-label: Kd

> print(dat)
   chain.sequence  endpoint.label   result
1       IAFTRLFTV              Kd  ≥ 20 µM

====

# target-entity: HLA-A*02:02
# protocol-details: IEDB peptide-MHC binding, purified MHC/competitive/radioactivity; filed as Kd, often an IC50 or EC50 that approximates it; bounds were set here for any values at or beyond the usual limits of such assays
# stated-conditions: source organism: Mammarenavirus guanaritoense
endpoint-label: Kd

> print(dat)
   chain.sequence  target.entity     result
1       YVIGLLPQS    HLA-A*02:02  ≥ 77.7 µM

====

# target-entity: HLA-A*02:03
# protocol-details: IEDB peptide-MHC binding, purified MHC/competitive/fluorescence; filed as Kd, often an IC50 or EC50 that approximates it; bounds were set here for any values at or beyond the usual limits of such assays
# stated-conditions: source organism: Bacillus anthracis str. A0488
pKd: −log10 of the molar value.
endpoint-label: pKd

> print(dat)
   chain.sequence  target.entity  endpoint.label  measured.number
1       GLPESTPSL    HLA-A*02:03             pKd             7.67

All figures here come from the Immune Epitope Database (IEDB).
